Target: T1, ApoE4 amino acids 54-164, expressed on yeast (human, UniProt P02649 72-182)
T1 construct: with myc tag, on yeast cells; expression in yeast printed as Low; range counts on the mature protein; also called helix2 + 3 + 4
T1 chain: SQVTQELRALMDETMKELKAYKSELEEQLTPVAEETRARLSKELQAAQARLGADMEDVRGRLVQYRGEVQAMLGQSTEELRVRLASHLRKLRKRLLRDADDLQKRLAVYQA
Test: yeast display of myc-tagged ApoE4 fragment, antibody staining
TEST READOUT: binding result

# BINDER, TEST READOUT, DATA VALUE
records = [
    ("HJ155 (antibody, V domains shown, murine monoclonal antibody from hybridoma; also called HJ155B (biotinylated)) VH: RVQLQQSGPGLVKPGASVKISCKASGYTFTDYYINWVRQRPGQGLEWIGWIFPGSGITYYNEKFKGKATLTVDRSSSTAYMLLSSLTSEDSAVYFCARYAYGSPFAYWGQGTLVTVSA VL: DVLMTQTPLSLPVSLGDQASISCRSSQSIVHSNGNTYLEWYLQKPGQSPKLLIYKVSNRFSGVPDRFSGSGSGTDFTLKISRVEAEDLGVYYCFQGSHVPYTFGGGTKLEIKR", "binding result", "binds"),
    ("HJ1518 (antibody, V domains shown, murine monoclonal antibody from hybridoma) VH: QVQLQQSGPELVKPGASVKISCKASGYTFSDYYINWVKQRPGQGLEWIGWIFPGSGSSYYNEKFKGKATLTVDKSSRTAYMLLSSLTSEDSAVYFCARYYGSSPFAYWGQGTLVTVST VL: DVLMTQSPLSLPVSLGDQASISCRSSQSIVHRNGNTYLEWYLQKPGQSPKLLIYKVSNRFSGVPDRFSGSGSGTDFTLKISRVEAEDLGVYYCFQGSHVPYTFGGGTKLEIRR", "binding result", "binds"),
    ("HJ151 (antibody, V domains shown, murine monoclonal antibody from hybridoma; also called HJ151B (biotinylated)) VH: QVQLQQSGAELVRPGASVTLSCKASGYTFTDYEMHWVKQTPVHGLEWIGVIDPEKGGTAYNQKFKGKAILTADKSSSTAYMDLRSLTSEDSAVYYCLKDSWGQGTTLTVSS VL: DVLMTQTPLSLPVSLGDQASISCRSSQTIVHSDGNTYLEWYLQKPGQSPKLLIYKVSNRFSGVPDRFSGSGSGTYFTLKISRVEAEDLGVYYCFQGSHVPCTFGGGTKLEIKR", "binding result", "binds"),
]
